- measurement-description: NCI Yeast Anticancer Drug Screen. Data for the bub3 strain (AID 167)
- condition-notes: S. cerevisiae bub3 mutant strain, at 50.0 µM (retest, dose inferred, filed as 5.0)
About 79,000 compounds went through this panel and 15% of them were active in at least one assay; those are over-represented in the sample as a whole. The source made the active and inactive calls. Cut-off read from the data, not from the text of the source: active = growth inhibition above about 70%; inactive = the rest.
Outcome codes: active, inactive

{"compound": "O=[N+]([O-])c1ccc(-c2nc(/C=N/N3CCCCC3)cs2)o1", "assigned-label": "inactive"}
{"compound": "CCOC(=O)NC(NNc1ccc([N+](=O)[O-])cc1[N+](=O)[O-])(C(F)(F)F)C(F)(F)F", "assigned-label": "active"}
{"compound": "CCC(c1ccc(O)cc1)C(O)(CC)c1ccc(O)cc1 (centres undefined)", "assigned-label": "inactive"}
{"compound": "CCOC(=O)C(CCOC)C(=O)OCC", "assigned-label": "inactive"}
